# Target Or System: Prostaglandin G/H synthase 2 (Homo sapiens, UniProt P35354)
# Sequence (P35354 whole entry): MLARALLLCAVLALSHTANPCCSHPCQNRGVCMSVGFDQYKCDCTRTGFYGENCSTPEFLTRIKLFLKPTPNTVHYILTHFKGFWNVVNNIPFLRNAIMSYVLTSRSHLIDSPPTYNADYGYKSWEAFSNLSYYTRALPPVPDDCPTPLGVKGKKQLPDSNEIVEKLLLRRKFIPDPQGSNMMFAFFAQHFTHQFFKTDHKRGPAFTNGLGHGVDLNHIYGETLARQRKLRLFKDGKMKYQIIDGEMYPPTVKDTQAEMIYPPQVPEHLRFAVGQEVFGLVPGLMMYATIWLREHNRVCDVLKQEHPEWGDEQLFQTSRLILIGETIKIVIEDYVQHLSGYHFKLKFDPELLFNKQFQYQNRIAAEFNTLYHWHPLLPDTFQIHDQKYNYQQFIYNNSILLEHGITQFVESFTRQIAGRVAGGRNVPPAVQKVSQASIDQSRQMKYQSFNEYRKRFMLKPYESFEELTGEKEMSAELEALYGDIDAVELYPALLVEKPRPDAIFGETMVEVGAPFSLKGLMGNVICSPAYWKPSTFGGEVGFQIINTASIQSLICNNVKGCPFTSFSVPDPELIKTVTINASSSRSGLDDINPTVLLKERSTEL
# Experiment Summary: Inhibition of human recombinant COX-2 using S0168-2 as substrate preincubated for 10 mins followed by substrate addition and measured after 10 mins by microplate reader analysis
Quantity Name: pIC50
# log scale: pIC50 equals minus log10 of the concentration in mol/L

Query: pIC50 of "Cc1ncsc1-c1ccc([C@@H](C)NC(=O)[C@@H]2C[C@@H](O)CN2C(=O)[C@@H](NC(=O)CCCCn2cc(CCC(=O)Oc3ccccc3C(=O)O)nn2)C(C)(C)C)cc1" on Prostaglandin G/H synthase 2 (Homo sapiens, UniProt P35354)?
Result: 3.49
